All figures here come from PubChem BioAssay (NCI).

# Test system: 786-0 renal
# test_description: NCI-60 one-dose screen, 48 h
# settings: 10 µM unless noted
Compounds without any hit were thinned out: in the full panel of roughly 83,000, 20% have a hit. Active and inactive are the calls of the source. How the source made its calls: active means growth percent below 10; inactive means the rest.
Hi! Could you answer with just one of these? active, inactive

- molecule: "O=C(CCc1nnc2sc(COc3ccccc3)nn12)c1nc2ncccc2[nH]1"
  category: "inactive"

Asked: Outcome logged for "O=c1oc2ccc(I)cc2c(=O)n1-c1ccc(F)cc1F" in this assay:
Given back: inactive

* * *

# Tested on: KM12 colon
# test_description: NCI-60 one-dose screen, 48 h
# settings: 10 µM unless noted
# Experimental: Growth inhibition of the KM12 human tumor cell line is measured as a screen for anti-cancer activity. Cells are grown in 96 well plates and exposed to the test compound for 48 hours. Compounds are tested at a single concentration, which is 10^-5 M for most compounds. The reported endpoint is percent growth (GI% or GIPRCNT), where numbers from 0 - 100% represent growth inhibition, and numbers from -100% - 0 represent cell death. For example, a value of 40 represents 60% growth inhibition. […]
About 83,000 compounds went through this panel and 20% of them were active in at least one assay; those are over-represented in the sample as a whole. Active and inactive are the calls of the source. Rule for the calls: active = growth percent below 10; inactive = the rest.
Hi! Could you answer with just one of these? active, inactive

- compound: "CCCCCCc1cc2cc(-c3nc4ccccc4[nH]3)c(=Nc3ccccc3C)oc2cc1O"
  measured_on: "KM12 colon"
  category: "inactive"

Asked: Outcome logged for "Cc1ccc(NC2=CC(=O)C(=O)c3ccccc32)c(C)c1" in this assay:
Given back: inactive

Asked: Outcome logged for "CC/C(=C(\CC)c1ccc(OCC[N+](C)(C)C)cc1)c1ccc(OC)cc1" in this assay:
Given back: inactive

Asked: Outcome logged for COc1cc(C2CC(c3ccc(Nc4nc(NCCO)nc(N5CCOCC5)n4)cc3)=NN2c2cc(Cl)cc(Cl)c2)cc(OC)c1OC (stereo unspecified) in this assay:
Given back: inactive

Asked: Outcome logged for "NC(CCl)=NCCC[C@H](N)C(=O)O" in this assay:
Given back: inactive

Asked: Outcome logged for "CC/C=C\C[C@H](O)C/C=C1/C(=O)C=C[C@@H]1C/C=C\CCCC(=O)OCCS(=O)(=O)c1ccccc1" in this assay:
Given back: inactive

Asked: Outcome logged for "O=C1/C=C/[C@@H](O)[C@@H]2C[C@@H](O)C[C@H]2/C=C/CCCCO1" in this assay:
Given back: active

Asked: Outcome logged for "O=c1oc2ccc(Cl)cc2c(=O)n1-c1ccc(I)cc1F" in this assay:
Given back: active
